experimental_system: Bcl-xL, Q07817
Sequence (Q07817 1-209): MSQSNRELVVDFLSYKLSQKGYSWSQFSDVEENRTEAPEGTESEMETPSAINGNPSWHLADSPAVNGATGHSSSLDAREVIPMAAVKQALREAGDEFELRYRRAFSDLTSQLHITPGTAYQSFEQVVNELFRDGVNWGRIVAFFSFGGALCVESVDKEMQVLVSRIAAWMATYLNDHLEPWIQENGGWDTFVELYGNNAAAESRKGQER
measurement_notes: fluorescence polarisation, direct titration of receptor into 10 nM labelled peptide
quantity_measured: Kd (nM)

Here is how some binders turned out for Kd.
binder: ACGDSVLARMLRELGDSLRRPQLRLW [SLC19A1]
Kd, nM: 1460

binder: TRELQELARKLQELADASENLLTENT [TXNDC11]
Kd, nM: 1490

binder: FTGNNTAVQELKRVSEQFTATFRRKA [TUBB4Q]
Kd, nM: 2050

binder: EEIIHKLAMQLRHIGDNIDHRMVRED [PXT1]
Kd, nM: 8

A: AELRLFLAQRLRWLCDSCPASRATCV [NBEAL2]
B: RYRHGAPAEQLRHLADMLTTKWATLQ [PLEKHH1]
Between the entries labeled A and B , whose measured Kd is lower? Respond with the label that goes with your answer.
A
(A: 10 nM, B: 650 nM)
